Molecular target: Voltage-gated potassium channel subunit beta-2 (Rattus norvegicus) (UniProt P62483)
Sequence (P62483 whole entry, looked up): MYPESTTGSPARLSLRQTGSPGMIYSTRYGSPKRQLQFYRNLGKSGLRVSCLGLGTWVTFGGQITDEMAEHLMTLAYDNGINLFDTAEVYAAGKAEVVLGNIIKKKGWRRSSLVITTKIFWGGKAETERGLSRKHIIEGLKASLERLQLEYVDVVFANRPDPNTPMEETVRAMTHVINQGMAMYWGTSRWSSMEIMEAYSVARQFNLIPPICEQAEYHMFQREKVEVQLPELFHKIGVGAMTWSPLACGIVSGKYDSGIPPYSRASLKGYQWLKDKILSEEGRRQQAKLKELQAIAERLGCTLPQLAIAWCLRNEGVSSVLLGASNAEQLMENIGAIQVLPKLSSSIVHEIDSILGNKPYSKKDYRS
Experiment: KvBeta enzyme negative modulators, primary screen, biochemical, NADPH fluorescence (AID 622);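 also: slope of raw intensity against log time taken from 70 to 1610 s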
Conditions: recombinant KvBeta, 4-cyanobenzaldehyde reduction, at 10 µM, stronger effect = higher value
Quick list: fluorescence slope per entry.

>  <mol>
Nc1nnnn1/N=C/c1ccco1

>  <fluorescence slope>
-0.502

$$$$
>  <mol>
Cc1ccc(-n2ncc3c(NCCCOC(C)C)ncnc32)c(C)c1

>  <fluorescence slope>
-0.408

$$$$
>  <mol>
Nc1nc2ccccc2n1C(=O)CCc1ccccc1

>  <fluorescence slope>
-0.396

$$$$
>  <mol>
COc1cccc(C(=O)NC2=NCCS2)c1

>  <fluorescence slope>
-0.496

$$$$

----------
Test: inhibitors of Sendai virus-induced IRF3 signaling, primary screen, TLR/RLR signaling modifier project, cell-based, Sendai virus stimulus, luciferase, 10K MLSCN set (AID 602276);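 also: firefly luciferase from ISG56 promoter only with Renilla not read in this screen; 0% = Sendai virus plus DMSO and 100% = medium plus DMSO without virus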
Details: HEK293 RL24 IRF3 luciferase reporter, at 10 µM, stronger effect = higher value

>  <compound>
COCCn1c(SCC(=O)N2CCc3ccccc32)nc2c(c1=O)SC(C)C2 (stereo unspecified)

>  <unitOfMeasure>
%

>  <inhibition>
1.65

$$$$
>  <compound>
O=P(O)(CCc1ccccc1)CN1CCCCC1

>  <unitOfMeasure>
%

>  <inhibition>
-8.42

$$$$
>  <compound>
O=C(CSc1ncnc2c1oc1ccccc12)Nc1ccccc1C(F)(F)F

>  <unitOfMeasure>
%

>  <inhibition>
-3.61

$$$$
>  <compound>
CCOC(=O)c1cc(C)sc1N1C(=O)C2C3C=CC(C3)C2C1=O (stereo unspecified)

>  <unitOfMeasure>
%

>  <inhibition>
16.2

$$$$
>  <compound>
O=C(NCc1ccccn1)C(C(=O)c1ccc(F)cc1)n1ccccc1=O (stereo unspecified)

>  <unitOfMeasure>
%

>  <inhibition>
-10.6

$$$$
>  <compound>
O=C(OCCN(CCOC(=O)c1ccncc1)S(=O)(=O)c1cccs1)c1ccncc1

>  <unitOfMeasure>
%

>  <inhibition>
7.42

$$$$

----------
Test: inhibitors of mutant huntingtin aggregation, primary screen, imaging, exon1htt(103Q)mCFP cells, high-content imaging (AID 483);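 also: compound exposure lasted 3 days before fixation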
Conditions: exon1htt(103Q)mCFP cell line, aggregate imaging, at 2 µM; stronger effect = higher value
Calls of active or inactive are those of the source.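 Rule for the calls: active = visual image review flags a hit and inhibition of aggregation exceeds 20%; inconclusive = visual hit but inhibition at or below 20%; inactive = no hit on visual image review.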

>  <compound>
Cc1ccc(-c2ccc(=O)n(CCC(=O)NCCN3CCCCC3C)n2)cc1 (centres undefined)

>  <inhibition of aggregation>
-7.7% (inactive)

$$$$
>  <compound>
CCCCN(C)CCCNC(=O)CC1Oc2ccccc2NC1=O (centres undefined)

>  <inhibition of aggregation>
18.9% (inactive)

$$$$
>  <compound>
O=C(NCc1ccc2c(c1)OCO2)c1cccc2c1C(=O)N(C1CCCCC1)C2

>  <inhibition of aggregation>
-12.5% (inactive)

$$$$
>  <compound>
CC1=C(C(=O)OCC(C)C)C(c2cc3c(cc2Br)OCO3)NC(=O)N1C (centres undefined)

>  <inhibition of aggregation>
-13.3% (inactive)

$$$$

----------
Test: inhibitors of TNFa-induced NFkB p65 translocation, primary screen, imaging, HUVEC, MLSMR starter and 10KST1 sets (AID 438);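 also: compound added about 3h40 before a 20 min TNFalpha stimulation; signal is the nuclear over cytoplasmic p65 intensity ratio per well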
Conditions: HUVEC TNFa-induced p65 nuclear translocation; at 2 µM, stronger effect = higher value, 0% TNFa-plus-vehicle, 100% no-TNFa wells
List of inhibition values.
assayReadout: inhibition (%)

>  <compound>
CCCC1(C(=O)OCC)NC(c2ccc(N(C)C)cc2)C2C(=O)N(c3ccc(F)cc3)C(=O)C21 (centres undefined)

>  <readoutNumber>
-10

$$$$
>  <compound>
CC1/C(=N/O)C(CN(C)C)C2CC1C2(C)C (centres undefined)

>  <readoutNumber>
-2.5

$$$$
>  <compound>
CCc1nc(NC2CCCCC2)c(C#N)c2c1COC(C)(C)C2

>  <readoutNumber>
-9.3

$$$$
>  <compound>
CC(C)(C)OC(=O)N1CC=C2C(C#N)=C(N)C(C#N)(C#N)C(c3cccs3)C2C1 (centres undefined)

>  <readoutNumber>
2.4

$$$$
>  <compound>
COc1cc2[nH]c(=O)c(C(=O)NCCCN3CCCCC3)c(O)c2cc1OC

>  <readoutNumber>
-24.5

$$$$
>  <compound>
CCOC(=O)c1ccc(N2C(=O)CC(NC3CCN(C(=O)c4ccc(F)cc4)CC3)C2=O)cc1 (centres undefined)

>  <readoutNumber>
8.6

$$$$
>  <compound>
CC(NC(=O)NCCCn1ccnc1)(C(F)(F)F)C(F)(F)F

>  <readoutNumber>
2.1

$$$$
>  <compound>
O=C(CN1C(=O)c2ccccc2C1=O)OCN1C(=O)c2ccccc2C1=O

>  <readoutNumber>
-4.5

$$$$
>  <compound>
O=C(c1cnn2c1NC(c1ccco1)CC2C(F)(F)F)N1CCN(c2cccc(Cl)c2)CC1 (centres undefined)

>  <readoutNumber>
-3.8

$$$$

Values from PubChem BioAssay
